Tested on: MOLM1 and UCSD/AML1 (averaged)
assay protocol: cell viability relative to DMSO control (POC); higher = less growth inhibition
experimental setup: 1 µM; 72 h
The campaign covered roughly 2,100 compounds. About 180 (8.6%) showed an effect of 50% or more. Only a selection was taken, and strong results are over-represented in it overall.
parameter measured: cell viability
Please state the value followed by its unit.

Some entries whose results are on file:
Cc1cc(/C=C/c2ccc3cc(N(C)C)ccc3[n+]2C)c(C)n1-c1ccccc1    29.3%
CC(C)[C@@H]1CC[C@@H](C)C[C@H]1OC(=O)c1ccccc1    109%
CC(C)=CCOc1cc2oc(=O)ccc2cc1O    98%
COc1cc2oc3cc(OC)c(OC)c(CC=C(C)C)c3c(=O)c2c(OC)c1CC=C(C)C    104%

What cell viability value was documented for this molecule, CCN(CC)CCNC(=O)COc1ccc(OC)cc1 ?
97.5%

What cell viability value was documented for this molecule, CCCSc1ccc2[nH]c(NC(=O)OC)nc2c1 ?
12.4%

What cell viability value was documented for this molecule, C[C@H]1O[C@@H](O[C@H]2[C@@H](O)C[C@H](O[C@H]3[C@@H](O)C[C@H](O[C@H]4CC[C@@]5(C)[C@H](CC[C@@H]6[C@@H]5C[C@@H](O)[C@]5(C)[C@@H](C7=CC(=O)OC7)CC[C@]65O)C4)O[C@@H]3C)O[C@@H]2C)C[C@H](O)[C@@H]1O ?
3.03%

What cell viability value was documented for this molecule, CC(=O)Oc1cc(C)c2c(c1C(OC(C)=O)OC(C)=O)Oc1c(c(C)c(OC(C)=O)c3c1C(OC(C)=O)OC3=O)OC2=O (centres undefined) ?
97.6%

What cell viability value was documented for this molecule, CN(C)Cc1c(C(=O)NCCOc2ccc(C(=O)NO)cc2)oc2ccccc12 ?
1.01%

What cell viability value was documented for this molecule, C[C@H]1O[C@@H](O[C@H]2[C@@H](O)C[C@H](O[C@H]3[C@@H](O)C[C@H](O[C@H]4CC[C@@]5(C)[C@H](CC[C@@H]6[C@@H]5CC[C@]5(C)[C@@H](C7=CC(=O)OC7)CC[C@]65O)C4)O[C@@H]3C)O[C@@H]2C)C[C@H](O)[C@@H]1O ?
2.44%

What cell viability value was documented for this molecule, COc1cc(N2CCC(N3CCN(C)CC3)CC2)ccc1Nc1ncc(Cl)c(Nc2ccccc2S(=O)(=O)C(C)C)n1 ?
30.7%

What cell viability value was documented for this molecule, COc1cc(C/C=C/c2ccccc2)c(OC)cc1O ?
93.6%

What cell viability value was documented for this molecule, C[C@@H]1CC[C@@]2(OC1)O[C@H]1C[C@H]3[C@@H]4CC[C@H]5C[C@@H](O)CC[C@]5(C)[C@H]4CC[C@]3(C)[C@H]1[C@@H]2C ?
97.1%

What cell viability value was documented for this molecule, O=C(Nc1ccc(C(=O)O)c(O)c1)c1ccccc1 ?
96.4%

###

The reader will find reported cell viability values listed item by item below.
Test system: MOLM1 and UCSD/AML1 (averaged)
assay protocol: cell viability relative to DMSO control (POC); higher = less growth inhibition
experimental setup: 1 µM; 72 h
Among all 2,100 compounds or so, about 180 (8.6%) showed an effect of 50% or more. Only a selection was taken, and strong results are over-represented in it overall.
Note: unit % is implicit; provide only the numeric part.

CO[C@H]1C[C@@H]2CC[C@@H](C)[C@@](O)(O2)C(=O)C(=O)N2CCCC[C@H]2C(=O)O[C@H]([C@H](C)C[C@@H]2CC[C@@H](OC(=O)C(C)(CO)CO)[C@H](OC)C2)CC(=O)[C@H](C)/C=C(\C)[C@@H](O)[C@@H](OC)C(=O)[C@H](C)C[C@H](C)/C=C/C=C/C=C/1C    11

Could you now look at the following compound, please?
What cell viability value was documented for this compound, CO[C@H]1C[C@@H]2CC[C@@H](C)[C@@](O)(O2)C(=O)C(=O)N2CCCC[C@H]2C(=O)O[C@H]([C@H](C)C[C@@H]2CC[C@@H](O)[C@H](OC)C2)CC(=O)[C@H](C)/C=C(\C)[C@@H](O)[C@@H](OC)C(=O)[C@H](C)C[C@H](C)/C=C/C=C/C=C/1C [Rapamycin (Sirolimus)] ?
41.5

###

Tested on: MOLM1 and UCSD/AML1 (averaged)
assay protocol: cell viability relative to DMSO control (POC); higher = less growth inhibition
experimental setup: 1 µM; 72 h
Structures can show the parent of a compound that is named as a salt. In all, about 2,100 compounds went through this assay and about 180 (8.6%) showed an effect of 50% or more. What follows is part of a selection rich in strong results, with near analogues and random picks from the rest.
parameter measured: cell viability (%)
Note: unit % is implicit; provide only the numeric part.

Some entries whose results are on file:
CCCCCCCCCCCCCCCC[N+](C)(C)C    43.7
C=C(C)[C@H]1COc2cc3oc(=O)ccc3cc2O1    93.3
COc1cc(O)c2c(=O)cc(C)oc2c1CC=C(C)C    87.8
COc1ccc2c(=O)c(-c3ccc(O)cc3)coc2c1    84.7
N#CCNC(=O)c1ccc(-c2ccnc(Nc3ccc(N4CCOCC4)cc3)n2)cc1 [Momelotinib (CYT387)]    51.4
CCCCCCCCCCCCCCCCCCCCCCO    101
CC(C)(C)Cn1c(N)nc2ccc(-c3[nH]c(C(C)(C)C)nc3-c3ccc(F)cc3)nc21    91
CC[C@@]1(O)C(=O)OCc2c1cc1n(c2=O)Cc2cc3c(CN(C)C)c(O)ccc3nc2-1 [Topotecan HCl]    2.12
CCc1c2c(nc3ccc(OC(=O)N4CCC(N5CCCCC5)CC4)cc13)-c1cc3c(c(=O)n1C2)COC(=O)[C@]3(O)CC [Irinotecan HCl Trihydrate (Campto)]    15.9

Hello, I am looking for reported cell viability with MOLM1 and UCSD/AML1 (averaged) for COc1ccc([C@@H](C)C(=O)c2ccc(O)cc2O)cc1 . Could you help?
112

###

Tested on: MOLM1 and UCSD/AML1 (averaged)
assay protocol: cell viability relative to DMSO control (POC); higher = less growth inhibition
experimental setup: 1 µM; 72 h
In all, about 2,100 compounds went through this assay and about 180 (8.6%) showed an effect of 50% or more. Many of the other results were omitted from the sample, so strong results are more common in it than they were.
parameter measured: cell viability (%)
Note: unit % is implicit; provide only the numeric part.

CN1CCC(CNc2ccc3ncc(-c4cccc(OC(F)(F)F)c4)n3n2)CC1 [SGI-1776 free base]    80
COC(=O)c1c(C)cc(OC(=O)c2c(C)cc(O)c(C=O)c2O)c(C)c1O    100
O.O.O.O.O.O.O.O.O.O.O.O.O.O.O.O.O=S(=O)([O][Al])OC[C@H]1O[C@@](COS(=O)(=O)[O][Al])(O[C@H]2O[C@H](COS(=O)(=O)[O][Al])[C@@H](OS(=O)(=O)[O][Al])[C@H](OS(=O)(=O)[O][Al])[C@H]2OS(=O)(=O)[O][Al])[C@@H](OS(=O)(=O)[O][Al])[C@@H]1OS(=O)(=O)[O][Al]    101
COC(=O)[C@@H]1OC(=O)[C@H]2O[C@@]23[C@@]1(C)CCC1[C@@]2(C)CCC(=O)C(C)(C)C2C[C@@H](OC(C)=O)[C@]13C (stereo partly specified)    99
C=C1C(N)CC2CC1C2(C)C (stereo not drawn) [3-AMINO-beta-PINENE]    96.3

Could you now look at the following molecule, please?
Hello, I am looking for reported cell viability with MOLM1 and UCSD/AML1 (averaged) for CNC(=O)c1cc(COc2nnc(Nc3ccc(Cl)cc3)c3ccoc23)ccn1 [Telatinib (BAY 57-9352)] . Could you help?
94.5

###

Test system: MOLM1 and UCSD/AML1 (averaged)
assay protocol: cell viability relative to DMSO control (POC); higher = less growth inhibition
experimental setup: 1 µM; 72 h
Out of some 2,100 compounds screened, about 180 (8.6%) showed an effect of 50% or more. This excerpt belongs to a sample that is enriched for strong results.
// returns Not satisfied unless cell viability is strictly below 90%, in which case Satisfied

Solved cases below.
COc1cnc(NS(=O)(=O)c2ccc(N)cc2)nc1    Not satisfied
CN(c1ncccc1CNc1nc(Nc2ccc3c(c2)CC(=O)N3)ncc1C(F)(F)F)S(C)(=O)=O    Satisfied

Hello, I'm reviewing records and need to know if cell viability of CCCS(=O)(=O)Nc1ccc(F)c(C(=O)c2c[nH]c3ncc(-c4ccc(Cl)cc4)cc23)c1F is below 90%. Could you check?
Not satisfied

###

Test system: MOLM1 and UCSD/AML1 (averaged)
assay protocol: cell viability relative to DMSO control (POC); higher = less growth inhibition
experimental setup: 1 µM; 72 h
Hit rate of the full screen: of about 2,100 compounds, about 180 (8.6%) showed an effect of 50% or more. The sample holds strong results, similar compounds and a random draw of the others, so the mix is not that of the screen.
The reader will find reported cell viability values listed item by item below.
Note: unit % is implicit; provide only the numeric part.

Some entries whose results are on file:
CN(C)CC[C@H](CSc1ccccc1)Nc1ccc(S(=O)(=O)NC(=O)c2ccc(N3CCN(Cc4ccccc4-c4ccc(Cl)cc4)CC3)cc2)cc1[N+](=O)[O-]    32.3
C=C1C2CC[C@@]3(C)[C@H](c4ccoc4)OC(=O)C[C@]13O[C@H]1CC(=O)C(C)(C)[C@H](C(O)C(=O)OC)[C@@]21C (some centres undefined)    99.4
COc1ccc2c(=O)c(CC(=O)O)coc2c1    98.6

What cell viability value was documented for this compound, CC(=O)O[C@H]1CC[C@]2(C)[C@H]3CC=C4[C@@H]5CC(C)(C)CC[C@]5(C(=O)O)CC[C@@]4(C)[C@]3(C)CC[C@H]2C1(C)C ?
102

What cell viability value was documented for this compound, CCCCC[C@H](CC(=O)O)C(=O)O ?
111

Values were extracted from the supplement of paper PMC11150407.
